Origin of measurements: ChEMBL document CHEMBL1131142

IC50 for assorted molecules
biological target: Aldo-keto reductase family 1 member B1 (Sus scrofa, UniProt P80276)
Numbers only; they are read as nM.

Here's what some known entries look like.
{"columns": ["molecule", "IC50 [nM]"],
 "data": [
  ["Nc1ccc(CN2C(=O)c3cccn3C3(CC(=O)NC3=O)C2=O)cc1 (stereo not given)", 140],
  ["CC(=O)c1cc2n(c1)C1(CC(=O)NC1=O)C(=O)N(Cc1ccc(Br)cc1F)C2=O (stereo not given)", 210]
]}

Prompt: What does the data say about its IC50? Entry: O=C1CC2(C(=O)N1)C(=O)N(Cc1ccc(Br)cc1F)C(=O)c1cccn12 (stereo not given)
Response: 45
